system: 624824-186-R-J3-PDC multicell spheroids, viability; test: Anticancer human tumor 624824-186-R-J3-PDC patient-derived colon adenocarcinoma cell line growth inhibition [PI3K]; conditions: compound 1 µM; stronger effect = lower value;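 further: luminescent signal used as a stand-in for spheroid viability; spheroids exposed to agents for seven days before luminescence read; percent viability relative to DMSO vehicle control wells taken as 100%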
I'd be grateful if you could share measured viability, T/C for these entries.

The examples below pair each entry with its known result.
[
  {
    "COMPOUND": "CC(Cn1ccc(-c2ccc(C#N)c(Cl)c2)n1)NC(=O)c1cc(C(C)O)[nH]n1 (stereo not given)",
    "viability, T/C": "95.5% [middle of 4 runs]"
  },
  {
    "COMPOUND": "CCN1CCN(Cc2ccc(Nc3ncc(F)c(-c4cc(F)c5nc(C)n(C(C)C)c5c4)n3)nc2)CC1",
    "viability, T/C": "104% [middle of 4 runs]"
  },
  {
    "COMPOUND": "Cc1nc(NC(=O)N2CCCC2C(N)=O)sc1-c1ccnc(C(C)(C)C(F)(F)F)c1 (stereo not given)",
    "viability, T/C": "107% [middle of 8 runs]"
  },
  {
    "COMPOUND": "CC(C)NCC(C(=O)N1CCN(c2ncnc3c2C(C)CC3O)CC1)c1ccc(Cl)cc1 (stereo not given)",
    "viability, T/C": "82% [middle of 4 runs]"
  },
  {
    "COMPOUND": "CC(Nc1ncnc2nc[nH]c12)c1cc2cccc(Cl)c2c(=O)n1-c1ccccc1 (stereo not given)",
    "viability, T/C": "108% [middle of 8 runs]"
  },
  {
    "COMPOUND": "CCCS(=O)(=O)Nc1ccc(F)c(C(=O)c2c[nH]c3ncc(-c4ccc(Cl)cc4)cc23)c1F",
    "viability, T/C": "95.5% [middle of 4 runs]"
  },
  {
    "COMPOUND": "C#Cc1c(F)ccc2cc(O)cc(-c3ncc4c(N5CC6CCC(C5)N6)nc(OCC56CCCN5CC(F)C6)nc4c3F)c12 (stereo not given)",
    "viability, T/C": "101% [middle of 4 runs]"
  },
  {
    "COMPOUND": "CNC(=O)c1ccc(N2C(=S)N(c3ccc(C#N)c(C(F)(F)F)c3)C(=O)C2(C)C)cc1F",
    "viability, T/C": "104% [middle of 4 runs]"
  },
  {
    "COMPOUND": "C=CC(=O)N1CCN(c2nc(=O)n(-c3c(C)ccnc3C(C)C)c3nc(-c4c(O)cccc4F)c(F)cc23)C(C)C1 (stereo not given)",
    "viability, T/C": "94.3% [middle of 4 runs]"
  },
  {
    "COMPOUND": "Cn1nccc1Nc1nccc(-c2ccn(C(CO)c3ccc(Cl)c(F)c3)c(=O)c2)n1 (stereo not given)",
    "viability, T/C": "80.8% [middle of 4 runs]"
  }
]

I have 5 compounds here; please give me viability, T/C for each one.
1. CC1(C)CCC(CN2CCN(c3ccc(C(=O)NS(=O)(=O)c4ccc(NCC5CCOCC5)c([N+](=O)[O-])c4)c(Oc4cnc5[nH]ccc5c4)c3)CC2)=C(c2ccc(Cl)cc2)C1
2. COc1c(OCCCN2CCOCC2)ccc2c3n(c(=NC(=O)c4cnc(N)nc4)nc12)CCN3
3. CC1(C)CCC(Nc2ncc(C(F)(F)F)c(-c3c[nH]c4c(P(C)(C)=O)c(C#N)ccc34)n2)CN1 (stereo not given)
4. Cn1ncc(Cl)c1-c1cc(C(=O)NC(CN)Cc2cccc(F)c2)sc1Cl (stereo not given)
5. CC(Nc1ccc2c(c1)OCCn1cc(N3C(=O)OCC3C(F)F)nc1-2)C(N)=O (stereo not given)

1: 105% [middle of 4 runs]; 2: 31.7% [middle of 8 runs]; 3: 96.9% [middle of 4 runs]; 4: 76.3% [middle of 4 runs]; 5: 88.5% [middle of 7 runs]
